# systemName: NdCld (chlorite dismutase from 'Candidatus Nitrospira defluvii') (Nitrospira defluvii)
# Sequence (B3U4H7 27-264): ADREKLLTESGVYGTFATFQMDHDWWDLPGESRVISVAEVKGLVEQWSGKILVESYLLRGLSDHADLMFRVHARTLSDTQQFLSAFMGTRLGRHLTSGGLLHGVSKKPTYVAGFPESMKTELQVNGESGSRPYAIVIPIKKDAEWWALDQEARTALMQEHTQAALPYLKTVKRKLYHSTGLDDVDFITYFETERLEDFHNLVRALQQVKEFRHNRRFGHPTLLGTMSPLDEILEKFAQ
# procedureText: biochemical
# Set-up: gene cld
endpoint: Kd (mM)
Return type: number; implicit unit mM.

Tell me reported Kd for F [F^−, fluoride] , tested with NdCld (chlorite dismutase from 'Candidatus Nitrospira defluvii') (Nitrospira defluvii).
5.9
